target: Follistatin-related protein 3 (Homo sapiens) (UniProt O95633); assay: compounds binding follistatin-related protein 3 – biochemical, small-molecule microarray, 635 nm fluorescence, primary screen (AID 1105); conditions: FSTL3 binding, higher = more signal;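 further: score merges emission near 667 nm and signal to noise per printed spot across three slides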
Sequence (O95633 whole entry, looked up): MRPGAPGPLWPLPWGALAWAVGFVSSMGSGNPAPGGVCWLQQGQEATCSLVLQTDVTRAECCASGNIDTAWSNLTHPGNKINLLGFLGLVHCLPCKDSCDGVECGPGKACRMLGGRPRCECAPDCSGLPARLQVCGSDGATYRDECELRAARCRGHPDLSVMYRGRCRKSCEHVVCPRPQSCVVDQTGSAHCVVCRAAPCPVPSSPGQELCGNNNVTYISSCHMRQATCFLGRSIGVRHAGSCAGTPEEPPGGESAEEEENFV
quantity.name: composite z-score
Please state the value as a number alone, without comment.

-- ask Any idea what composite z-score came out for COC(=O)C(CC#Cc1ccc2c(c1)[C@]1(C(=O)N2)[C@H](c2ccc(OCCO)cc2)N2[C@H](c3ccccc3)[C@H](c3ccccc3)OC(=O)[C@H]2[C@@H]1C(=O)O)C(=O)OC on Follistatin-related protein 3 (Homo sapiens) (UniProt O95633)?
-- reply 0.808

-- ask Look up composite z-score with Follistatin-related protein 3 (Homo sapiens) (UniProt O95633) for this compound: O=C1O[C@H](c2ccccc2)[C@H](c2ccccc2)N2[C@H]1[C@@H](C(=O)N1CCN(c3ncccn3)CC1)[C@]1(C(=O)Nc3ccc(C#CCCO)cc31)[C@H]2c1ccc(OCCO)cc1
-- reply 1.48

Now examine the next entry.
-- ask Recorded composite z-score for CC1CC/C=C\[C@H]2OC34C=CCN(Cc5ccccc5)C(=O)[C@H]3N(CCO)C(=O)[C@@H]4C2C(=O)O1 (stereo partly drawn) with Follistatin-related protein 3 (Homo sapiens) (UniProt O95633), please?
-- reply -1.07
